Listing of entries alongside the reported inhibition at 10 µM.
System: primary mouse cortical neurons
Construct: primary cortical neurons, DIV 10
METHOD_SUMMARY: cells
Set-up: Protection from NMDA-induced (30 uM, 10 min) neuronal death; Hoechst nuclear morphology by automated microscopy
DETAILS: Cortical neurone, 20 h, read-out: % inhibition, inhibition of NMDA-induced cell death (protection score), 30 min pre-treatment
Numbers only; they are read as %.

Answered cases to consult:
Q: Fill in the recorded inhibition at 10 µM for this compound, with primary mouse cortical neurons as test system: CC[C@H]1OC(=O)[C@H](C)[C@@H](O[C@H]2C[C@@](C)(OC)[C@@H](O)[C@H](C)O2)[C@H](C)[C@@H](O[C@@H]2O[C@H](C)C[C@H](N(C)C)[C@H]2O)[C@](C)(O)C[C@@H](C)C(=O)[C@H](C)[C@@H](O)[C@]1(C)O [Erythromycin (E-Mycin)]
A: 29.4

Q: Fill in the recorded inhibition at 10 µM for this compound, with primary mouse cortical neurons as test system: CC(C)Oc1ccc2c(=O)c(-c3ccccc3)coc2c1
A: -1.69

Q: Fill in the recorded inhibition at 10 µM for this compound, with primary mouse cortical neurons as test system: CCOC(=O)N1CCC(=C2c3ccc(Cl)cc3CCc3cccnc32)CC1
A: -11.1

Q: Fill in the recorded inhibition at 10 µM for this compound, with primary mouse cortical neurons as test system: CC(=O)O[C@]1(C(C)=O)CC[C@H]2[C@@H]3C=C(C)C4=CC(=O)CC[C@]4(C)[C@H]3CC[C@@]21C [Megestrol Acetate]
A: -7.04

Q: Fill in the recorded inhibition at 10 µM for this compound, with primary mouse cortical neurons as test system: CC(C)[C@@H](C)/C=C/[C@@H](C)[C@H]1CC[C@H]2C3=CC=C4C[C@@H](O)CC[C@]4(C)[C@H]3CC[C@]12C
A: -1.47

Continuing:
Q: Fill in the recorded inhibition at 10 µM for this compound, with primary mouse cortical neurons as test system: O=c1[nH]cc(F)c(=O)[nH]1
A: -16.3

Q: Fill in the recorded inhibition at 10 µM for this compound, with primary mouse cortical neurons as test system: Cc1cc2c(C(C)C)c(O)c(O)c(C=O)c2c(O)c1-c1c(C)cc2c(C(C)C)c(O)c(O)c(C=O)c2c1O
A: -2.2
